B1: CDC25A (parent)
chain: QLIDPDENKENEAFEFKKPVRPVS

Variants of: B1
Assay: protein stability index of a GFP-peptide fusion (GPS, HEK-293T) (PSI 1-6); higher = more stable;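 note: lentivirally expressed fusions sorted by FACS into six bins by GFP to DsRed ratio, PSI derived from sequencing read proportions per bin multiplied by bin number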
Conditions: c terminus: a fixed tail appended
Reported values of protein stability index for individual entries
QUANTITY_NAME: protein stability index

construct_sequence="QMIDPDENKENEAFEFKKPVRPVS [L2M]" recorded_number=3.72
construct_sequence="VLIDPDENKENEAFEFKKPVRPVS [Q1V]" recorded_number=3.6
construct_sequence="QLIDPDENKENEAAEFKKPVRPVS [F14A]" recorded_number=4.68
construct_sequence="QLIDPAENKENEAFEFKKPVRPVS [D6A]" recorded_number=3.75
construct_sequence="QLIDPDYNKENEAFEFKKPVRPVS [E7Y]" recorded_number=3.45
construct_sequence="QLIDPDENKENEAVEFKKPVRPVS [F14V]" recorded_number=4.55
construct_sequence="QLDDPDENKENEAFEFKKPVRPVS [I3D]" recorded_number=4.64
construct_sequence="QLIDPDENKENSAFEFKKPVRPVS [E12S]" recorded_number=4.16
construct_sequence="QLIDPDENKENEAFEGKKPVRPVS [F16G]" recorded_number=3.76
construct_sequence="QLIDPDENKENEAFEPKKPVRPVS [F16P]" recorded_number=3.83
construct_sequence="QLIDPDENKENECFEFKKPVRPVS [A13C]" recorded_number=3.52
construct_sequence="QLILPDENKENEAFEFKKPVRPVS [D4L]" recorded_number=3.91
construct_sequence="QLIDPDENKENEAFETKKPVRPVS [F16T]" recorded_number=4.48
construct_sequence="QLIDPDENKENEAEEFKKPVRPVS [F14E]" recorded_number=4.78
construct_sequence="QLIDPDENMENEAFEFKKPVRPVS [K9M]" recorded_number=4.09
construct_sequence="QLIDPDENKENEAFEFKKPVRPVY [S24Y]" recorded_number=3.73
